Tested on: K98450-129-R-PDC complex spheroid growth, percent test/control;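 note: luminescence used as a proxy for viable cell amount; spheroids exposed to agents for seven days before the viability readout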
experiment.description: Anticancer human tumor K98450-129-R-PDC patient-derived colon adenocarcinoma cell line growth inhibition [RAS]
experimental.setup: second compound 0.316 µM; first compound 1 µM; hits give low values
property: viability, T/C (%)
Give your result in % as a bare value.

Field: example entries. Status: answers known.
- compound: "CC1(O)CCCC1n1c(=O)c(C(F)F)cc2cnc(NC3CCN(S(C)(=O)=O)CC3)nc21 (stereo not drawn) + C#Cc1c(F)ccc2cc(O)cc(-c3ncc4c(N5CC6CCC(C5)N6)nc(OCC56CCCN5CC(F)C6)nc4c3F)c12"
  quantity.unit: "%"
  measurement: 78.8
- compound: "CCC(CC)c1cc(NC2CCC(N)C2)n2nccc2n1 (stereo not drawn) + C=CC(=O)N1CCN(c2nc(OCC3CCCN3C)nc3c(F)c(-c4nc(N)cc(C)c4C(F)(F)F)c(Cl)cc23)C(C)C1"
  quantity.unit: "%"
  measurement: 37.3
- compound: "CC1(O)CCCC1n1c(=O)c(C(F)F)cc2cnc(NC3CCN(S(C)(=O)=O)CC3)nc21 (stereo not drawn) + C=CC(=O)N1CCN(c2nc(OCC3CCCN3C)nc3c(F)c(-c4nc(N)cc(C)c4C(F)(F)F)c(Cl)cc23)C(C)C1"
  quantity.unit: "%"
  measurement: 27.6
- compound: "CCC(CC)c1cc(NC2CCC(N)C2)n2nccc2n1 (stereo not drawn) + C#Cc1c(F)ccc2cc(O)cc(-c3ncc4c(N5CC6CCC(C5)N6)nc(OCC56CCCN5CC(F)C6)nc4c3F)c12"
  quantity.unit: "%"
  measurement: 97.7
- compound: "Cc1nc(N2CCC3(CC2)COC(C)C3N)c(CO)nc1Sc1ccnc(N)c1Cl (stereo not drawn) + C=CC(=O)N1CCN(c2nc(OCC3CCCN3C)nc3c(F)c(-c4nc(N)cc(C)c4C(F)(F)F)c(Cl)cc23)C(C)C1"
  quantity.unit: "%"
  measurement: 9.11
- compound: "CC(Nc1ccc2c(c1)OCCn1cc(N3C(=O)OCC3C(F)F)nc1-2)C(N)=O (stereo not drawn) + C#Cc1c(F)ccc2cc(O)cc(-c3ncc4c(N5CC6CCC(C5)N6)nc(OCC56CCCN5CC(F)C6)nc4c3F)c12"
  quantity.unit: "%"
  measurement: 91.1
- compound: "Cc1nc(N2CCC3(CC2)COC(C)C3N)c(CO)nc1Sc1ccnc(N)c1Cl (stereo not drawn) + C#Cc1c(F)ccc2cc(O)cc(-c3ncc4c(N5CC6CCC(C5)N6)nc(OCC56CCCN5CC(F)C6)nc4c3F)c12"
  quantity.unit: "%"
  measurement: 66.6
- compound: "NC1c2ccccc2OC12CCN(c1cnc3c(N4CCCc5ncccc54)n[nH]c3n1)CC2 (stereo not drawn) + C#Cc1c(F)ccc2cc(O)cc(-c3ncc4c(N5CC6CCC(C5)N6)nc(OCC56CCCN5CC(F)C6)nc4c3F)c12"
  quantity.unit: "%"
  measurement: 10.3

Prompt line: What value of viability, T/C has been reported for the following compound? CC(Nc1ccc2c(c1)OCCn1cc(N3C(=O)OCC3C(F)F)nc1-2)C(N)=O (stereo not drawn) + C=CC(=O)N1CCN(c2nc(OCC3CCCN3C)nc3c(F)c(-c4nc(N)cc(C)c4C(F)(F)F)c(Cl)cc23)C(C)C1
Response line: 22.4

Prompt line: # input compound: C=CC(=O)Nc1cc(Nc2nccc(-c3cn(C)c4ccccc34)n2)c(OC)cc1N(C)CCN(C)C + C=CC(=O)N1CCN(c2nc(OCC3CCCN3C)nc3c(F)c(-c4nc(N)cc(C)c4C(F)(F)F)c(Cl)cc23)C(C)C1 ; wanted: its viability, T/C
Response line: 9.33

Prompt line: Sample Nc1ccn(C2OC(CO)C(O)C2(F)F)c(=O)n1 (stereo not drawn) + C=CC(=O)N1CCN(c2nc(OCC3CCCN3C)nc3c(F)c(-c4nc(N)cc(C)c4C(F)(F)F)c(Cl)cc23)C(C)C1 — what was its viability, T/C?
Response line: 12.8

Prompt line: May I ask what viability, T/C has been recorded for C=CC(=O)Nc1cc(Nc2nccc(-c3cn(C)c4ccccc34)n2)c(OC)cc1N(C)CCN(C)C + C#Cc1c(F)ccc2cc(O)cc(-c3ncc4c(N5CC6CCC(C5)N6)nc(OCC56CCCN5CC(F)C6)nc4c3F)c12 ?
Response line: 26

Prompt line: # query: viability, T/C of entry O=C(c1ccc(F)c(F)c1Nc1ccc(I)cc1F)N1CC(O)([C@@H]2CCCCN2)C1 + C=CC(=O)N1CCN(c2nc(OCC3CCCN3C)nc3c(F)c(-c4nc(N)cc(C)c4C(F)(F)F)c(Cl)cc23)C(C)C1
Response line: 2.41

Prompt line: What value of viability, T/C has been recorded for this entry: CCN1CCN(Cc2ccc(Nc3ncc(F)c(-c4cc(F)c5nc(C)n(C(C)C)c5c4)n3)nc2)CC1 + C#Cc1c(F)ccc2cc(O)cc(-c3ncc4c(N5CC6CCC(C5)N6)nc(OCC56CCCN5CC(F)C6)nc4c3F)c12
Response line: 67.4

Prompt line: Query: viability, T/C; subject: C=CC(=O)N1CCN(c2nc(OCC3CCCN3C)nc3c(F)c(-c4nc(N)cc(C)c4C(F)(F)F)c(Cl)cc23)C(C)C1 (stereo not drawn) + C#Cc1c(F)ccc2cc(O)cc(-c3ncc4c(N5CC6CCC(C5)N6)nc(OCC56CCCN5CC(F)C6)nc4c3F)c12
Response line: 32.6

Prompt line: Recorded viability, T/C for CC(C)NCC(C(=O)N1CCN(c2ncnc3c2C(C)CC3O)CC1)c1ccc(Cl)cc1 (stereo not drawn) + C#Cc1c(F)ccc2cc(O)cc(-c3ncc4c(N5CC6CCC(C5)N6)nc(OCC56CCCN5CC(F)C6)nc4c3F)c12 , please?
Response line: 97.3

Prompt line: GET /values?readout=viability, T/C&item= CC(C)NCC(C(=O)N1CCN(c2ncnc3c2C(C)CC3O)CC1)c1ccc(Cl)cc1 (stereo not drawn) + C=CC(=O)N1CCN(c2nc(OCC3CCCN3C)nc3c(F)c(-c4nc(N)cc(C)c4C(F)(F)F)c(Cl)cc23)C(C)C1
Response line: 43.7

Prompt line: Look up viability, T/C for this compound: O=C(c1ccc(F)c(F)c1Nc1ccc(I)cc1F)N1CC(O)([C@@H]2CCCCN2)C1 + C#Cc1c(F)ccc2cc(O)cc(-c3ncc4c(N5CC6CCC(C5)N6)nc(OCC56CCCN5CC(F)C6)nc4c3F)c12
Response line: 4.22
